- ASSAYED_SYSTEM: T1, cynomolgus monkey IL-33 expressed with a C-terminal hexahistidine tag (cynomolgus monkey)
- T1 construct: also called MfIL-33-6His; Mf-IL-33-6His
- T1 chain: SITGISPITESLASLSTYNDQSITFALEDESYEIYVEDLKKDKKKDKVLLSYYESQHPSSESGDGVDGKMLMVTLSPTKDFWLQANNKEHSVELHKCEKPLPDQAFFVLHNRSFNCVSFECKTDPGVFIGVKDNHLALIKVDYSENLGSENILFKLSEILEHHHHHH
- TEST: SPR 25C, pH6.0 chase, mAb captured
MEASURED_PROPERTY: koff (s⁻¹)
Lab book: enter the figure in s⁻¹, no units written.

H4H9663P (antibody, human IgG4, V domains shown, Human IgG4 Fc (H4H)) VH: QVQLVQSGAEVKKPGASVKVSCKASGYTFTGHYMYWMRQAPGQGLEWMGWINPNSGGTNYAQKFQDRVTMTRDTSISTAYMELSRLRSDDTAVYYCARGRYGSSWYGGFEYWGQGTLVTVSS VL: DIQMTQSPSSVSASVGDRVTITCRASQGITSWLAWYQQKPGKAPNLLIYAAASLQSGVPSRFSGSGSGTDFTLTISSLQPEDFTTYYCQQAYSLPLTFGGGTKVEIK :: 0.000683
H1M9568N (antibody, mouse IgG1, V domains shown, Human variable domains, mouse IgG1 Fc (H1M)) VH: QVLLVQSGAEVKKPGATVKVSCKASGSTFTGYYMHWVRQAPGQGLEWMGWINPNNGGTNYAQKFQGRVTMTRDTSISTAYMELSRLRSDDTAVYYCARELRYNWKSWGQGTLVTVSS VL: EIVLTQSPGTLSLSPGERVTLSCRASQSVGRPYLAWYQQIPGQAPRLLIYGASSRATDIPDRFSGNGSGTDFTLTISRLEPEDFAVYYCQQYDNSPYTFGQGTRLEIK :: 0.000302

Query binder follows.
What value of koff has been recorded for this entry: H4H9665P (antibody, human IgG4, V domains shown, Human IgG4 Fc (H4H)) VH: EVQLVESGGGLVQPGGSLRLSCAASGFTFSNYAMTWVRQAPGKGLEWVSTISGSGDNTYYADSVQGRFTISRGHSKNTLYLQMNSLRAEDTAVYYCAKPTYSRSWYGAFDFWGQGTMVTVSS VL: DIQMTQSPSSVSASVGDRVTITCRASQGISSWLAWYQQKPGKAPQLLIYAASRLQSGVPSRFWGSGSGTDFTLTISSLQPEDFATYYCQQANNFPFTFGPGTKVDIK
0.000753
